// reported GI % (10 μM) for each item listed
System: human PC-3 cells
Experiment: Sulforhodamine B (SRB) assay, cytotoxicity against PC-3 cells
Format: cell-based
Settings: SRB assay, PC-3 cells, 10 μM
Description: Add 5% Fetal Bovine Serum (FBS) to 96-well plate and fix the cells with 10% TCA after 24 hours of incubation and add the compound (T0). Add DMSO and culture for another 48 hours and the cells are fixed in 0.4% (W/V), 10% TCA and SRB, and stained with 1% acetic acid. […] The absorbance is measured at 515 nm. […] Growth inhibition (GI %) is calculated using the following formula 100−[(TX−T0)/(C−T0)]×100. […]
Metric: GI % (10 μM) (%)

CCN(CC)CCNc1nc2ccccc2c2c1-c1ccc(Cl)cc1C2=O ... 100
COc1ccccc1N1CCN(c2nc3ccccc3c3c2-c2ccc(Cl)cc2C3=O)CC1 ... 100
O=C1c2cc(Cl)ccc2-c2c(N3CCN(C(=O)N4CCCCC4)CC3)nc3ccccc3c21 ... 100
O=C1c2cc(Cl)ccc2-c2c(N3CCN(c4ccccc4F)CC3)nc3ccccc3c21 ... 85.48
CN1CCC(N2CCN(c3nc4ccccc4c4c3-c3ccc(Cl)cc3C4=O)CC2)CC1 ... 100
O=C1c2cc(Cl)ccc2-c2c(N3CCN(C4CCCC4)CC3)nc3ccccc3c21 ... 96.26
O=C1c2cc(Cl)ccc2-c2c(N3CCC4(CC3)OCCO4)nc3ccccc3c21 ... 100
CN1CCN(c2nc3ccccc3c3c2-c2ccc(Cl)cc2C3=O)CC1 ... 39.4
CCN1CCN(c2nc3ccccc3c3c2-c2ccc(Cl)cc2C3=O)CC1 ... 100

---

System: OVCAR-4
Assay: cells
Assay type: cell-based
Details: OVCAR-4 (Ovarian Cancer), 10 μM, 48 hours
# note: boundary value 90% maps to condition not met; growth percentage below it maps to condition met

CCN(CC)CCNc1nc2ccccc2c2c1-c1ccc(Cl)cc1C2=O [SJ-3] ... condition met
COc1cccc(N2CCN(c3nc4ccccc4c4c3-c3ccc(Cl)cc3C4=O)CC2)c1 [SJ-20] ... condition met
O=C1c2cc(Cl)ccc2-c2c(Cl)nc3ccccc3c21 [TC-XCl-1] ... condition not met
O=C1c2cc(Cl)ccc2-c2c(N3CCOCC3)nc3ccccc3c21 [SJ-8] ... condition not met

---

System: SW-620
Experiment: cells
Format: cell-based
Conditions: SW-620 (Colon Cancer), 10 μM, 48 hours
Metric: growth percentage

CNc1nc2ccccc2c2c1-c1ccc(Cl)cc1C2=O ... 96.25%
COc1cccc(N2CCN(c3nc4ccccc4c4c3-c3ccc(Cl)cc3C4=O)CC2)c1 ... 91.16%
O=C1c2cc(Cl)ccc2-c2c(Cl)nc3ccccc3c21 ... 98.29%
CC1CCN(c2nc3ccccc3c3c2-c2ccc(Cl)cc2C3=O)CC1 ... 88.89%
O=C1c2cc(Cl)ccc2-c2c(N3CCN(c4ccccc4)CC3)nc3ccccc3c21 ... 93.14%

---

Here the recorded growth percentage is given for each entry.
System: HT29
Experiment: cells
Assay type: cell-based
Conditions: HT29 (Colon Cancer), 10 μM, 48 hours
Metric: growth percentage (%)

CCN(CC)CCNc1nc2ccccc2c2c1-c1ccc(Cl)cc1C2=O ... 9.75
O=C1c2cc(Cl)ccc2-c2c(N3CCN(C(=O)N4CCCCC4)CC3)nc3ccccc3c21 ... 108.65
CNc1nc2ccccc2c2c1-c1ccc(Cl)cc1C2=O ... 99.44
O=C1c2cc(Cl)ccc2-c2c(N3CCNCC3)nc3ccccc3c21 ... -80.89
CN1CCN(c2nc3ccccc3c3c2-c2ccc(Cl)cc2C3=O)CC1 ... 93.76
O=C1c2cc(Cl)ccc2-c2c(N3CCN(C4CCCC4)CC3)nc3ccccc3c21 ... 93.22
O=C1c2cc(Cl)ccc2-c2c(SCCO)nc3ccccc3c21 ... 84.03
O=C1c2cc(Cl)ccc2-c2c(N3CCOCC3)nc3ccccc3c21 ... 91.34
COc1cccc(N2CCN(c3nc4ccccc4c4c3-c3ccc(Cl)cc3C4=O)CC2)c1 ... 95.93
O=C1c2cc(Cl)ccc2-c2c(N3CCSCC3)nc3ccccc3c21 ... 95.52

---

Listed here: items and their measured growth percentage.
Test system: MDA-MB-468
Experiment: cells
Format: cell-based
Conditions: MDA-MB-468 (Breast Cancer), 10 μM, 48 hours
Metric: growth percentage

CCN(CC)CCNc1nc2ccccc2c2c1-c1ccc(Cl)cc1C2=O ... 33.81%
O=C1c2cc(Cl)ccc2-c2c(N3CCN(C4CCCC4)CC3)nc3ccccc3c21 ... 103.99%
CN1CCN(c2nc3ccccc3c3c2-c2ccc(Cl)cc2C3=O)CC1 ... 95.71%
O=C1c2cc(Cl)ccc2-c2c(O)nc3ccccc3c21 ... 80.08%
O=C1c2cc(Cl)ccc2-c2c(SCCO)nc3ccccc3c21 ... 77.36%
CNc1nc2ccccc2c2c1-c1ccc(Cl)cc1C2=O ... -31.61%
CN(C)c1nc2ccccc2c2c1-c1ccc(Cl)cc1C2=O ... 0.60%
CC1CCN(c2nc3ccccc3c3c2-c2ccc(Cl)cc2C3=O)CC1 ... 97.12%
COc1nc2ccccc2c2c1-c1ccc(Cl)cc1C2=O ... 99.51%
O=C1c2cc(Cl)ccc2-c2c(N3CCSCC3)nc3ccccc3c21 ... 97.71%
O=C1c2cc(Cl)ccc2-c2c(N3CCN(c4ccccc4)CC3)nc3ccccc3c21 ... 95.37%

---

The reader will find reported GI % (10 μM) values listed item by item below.
Tested on: human PC-3 cells
Assay: Sulforhodamine B (SRB) assay, cytotoxicity against PC-3 cells
Format: cell-based
Details: SRB assay, PC-3 cells, 10 μM
Metric: GI % (10 μM)

O=C1c2cc(Cl)ccc2-c2c(N3CCCC3)nc3ccccc3c21 [SJ-4] ... 100%
COc1cccc(N2CCN(c3nc4ccccc4c4c3-c3ccc(Cl)cc3C4=O)CC2)c1 [SJ-20] ... 98.05%
O=C1c2cc(Cl)ccc2-c2c(N3CCCCCC3)nc3ccccc3c21 [SJ-7] ... 100%
O=C1c2cc(Cl)ccc2-c2c(N3CCN(c4ccccc4)CC3)nc3ccccc3c21 [SJ-16] ... 65.91%
O=C1c2cc(Cl)ccc2-c2c(N3CCCCC3)nc3ccccc3c21 [SJ-5] ... 100%

---

Metric: melting point

O=C1c2cc(Cl)ccc2-c2c(N3CCCCC3)nc3ccccc3c21 ... 191 to 192 °C
O=C1c2cc(Cl)ccc2-c2c(N3CCC4(CC3)OCCO4)nc3ccccc3c21 ... 218 to 219 °C
O=C1c2cc(Cl)ccc2-c2c(N3CCC(N4CCCCC4)CC3)nc3ccccc3c21 ... 174 to 175 °C
O=C1c2cc(Cl)ccc2-c2c(N3CCCC3)nc3ccccc3c21 ... 149 to 150 °C
O=C1c2cc(Cl)ccc2-c2c(N3CCN(c4ccccc4F)CC3)nc3ccccc3c21 ... 182 to 183 °C
CN1CCC(N2CCN(c3nc4ccccc4c4c3-c3ccc(Cl)cc3C4=O)CC2)CC1 ... 208 to 209 °C
O=C1c2cc(Cl)ccc2-c2c(N3CCCCCC3)nc3ccccc3c21 ... 146 to 147 °C
COc1ccccc1N1CCN(c2nc3ccccc3c3c2-c2ccc(Cl)cc2C3=O)CC1 ... 129 to 131 °C
CCN1CCN(c2nc3ccccc3c3c2-c2ccc(Cl)cc2C3=O)CC1 ... 182 to 184 °C
O=C1c2cc(Cl)ccc2-c2c(N3CCC(CCCC4CCNCC4)CC3)nc3ccccc3c21 ... 149 to 151 °C
O=C1c2cc(Cl)ccc2-c2c(N3CCN(Cc4ccccc4)CC3)nc3ccccc3c21 ... 178 to 180 °C

---

System: A549/ATCC
Test: cells
Format: cell-based
Details: A549/ATCC (Non-Small Cell Lung Cancer), 10 μM, 48 hours
Listing of recorded growth percentage by entry.
Metric: growth percentage (%)

O=C1c2cc(Cl)ccc2-c2c(N3CCN(C4CCCC4)CC3)nc3ccccc3c21 [SJ-14] ... 101.56
O=C1c2cc(Cl)ccc2-c2c(N3CCNCC3)nc3ccccc3c21 [SJ-10] ... 18.70
CC1CCN(c2nc3ccccc3c3c2-c2ccc(Cl)cc2C3=O)CC1 [SJ-6] ... 101.69
O=C1c2cc(Cl)ccc2-c2c(N3CCSCC3)nc3ccccc3c21 [SJ-9] ... 104.35
O=C1c2cc(Cl)ccc2-c2c(O)nc3ccccc3c21 [SJ-26] ... 104.88

---

Tested on: KM12
Test: cells
Format: cell-based
Conditions: KM12 (Colon Cancer), 10 μM, 48 hours
Readings of growth percentage for the listed compounds
Metric: growth percentage (%)

CC1CCN(c2nc3ccccc3c3c2-c2ccc(Cl)cc2C3=O)CC1 ... 94.80
COc1nc2ccccc2c2c1-c1ccc(Cl)cc1C2=O ... 98.35
O=C1c2cc(Cl)ccc2-c2c(N3CCN(c4ccccc4)CC3)nc3ccccc3c21 ... 98.34
O=C1c2cc(Cl)ccc2-c2c(N3CCN(C4CCCC4)CC3)nc3ccccc3c21 ... 99.33
O=C1c2cc(Cl)ccc2-c2c(N3CCSCC3)nc3ccccc3c21 ... 97.97
O=C1c2cc(Cl)ccc2-c2c(N3CCNCC3)nc3ccccc3c21 ... -47.09
O=C1c2cc(Cl)ccc2-c2c(N3CCN(C(=O)N4CCCCC4)CC3)nc3ccccc3c21 ... 101.58
CN1CCN(c2nc3ccccc3c3c2-c2ccc(Cl)cc2C3=O)CC1 ... 99.06
O=C1c2cc(Cl)ccc2-c2c(SCCO)nc3ccccc3c21 ... 84.62
CN(C)c1nc2ccccc2c2c1-c1ccc(Cl)cc1C2=O ... 94.44
